Test system: A. baumannii 14B0097 (Acinetobacter sp., BCRC number 14B0097)
Conditions: LYM broth, 200 mM (NaCl); 16 h, 37 °C
The following substances are listed with their measured MIC values.
Give me the value, and tack the unit on after it.

Completed entries (count: 4):
substance | MIC
Ac-KWLKWLAKKKKWR-NH2 [Peptide W5K04] | 12.5 µg/mL
Ac-KKKKWRKWLKWLA-NH2 [Peptide W5K11] | 1.56 µg/mL
Ac-KWRKWLKWLAKKK-NH2 [Peptide W5K01] | 3.13 µg/mL
Ac-WRKWLKWLAKKKK-NH2 [Peptide W5K02] | 3.13 µg/mL

Proceeding to the next substance to report its MIC.
Task item: Give its MIC value. Item: Ac-KKKWRKWLKWLAK-NH2 [Peptide W5K12]
Reply: 1.56 µg/mL
